Each recorded value in this set is attributed to patent US20260241035A1.

- assay-details: in vitro
- Type: cell-based, human
- condition: human; ganciclovir alone, GSC7; read-out: viability (MTT)
attribute-measured: viability at 200 μM (%)
Answers are plain numbers, in %.

Input line: Would you kindly share the measured viability at 200 μM for Nc1nc(O)c2ncn(COC(CO)CO)c2n1 ?
Output line: 89
